Property: melting point; scope: individual compounds

Input CS(C)(=O)=NS(=O)(=O)c1cccc(F)c1C#N . Output melting point: 184 °C

Note to self: melting point recorded for CN(CC(O)C(CC1CCCCC1)NC(=O)C(Cc1c[nH]cn1)NC(=O)C(CC(=O)C(C)(C)C)Cc1ccccc1)C(Cc1c[nH]cn1)NC(=O)C(CC(=O)C(C)(C)C)Cc1ccccc1 (stereo not drawn) was 118 °C

CC(C)(Cc1ccc(S(=O)(=O)CCc2c(CCNS(=O)(=O)Cc3ccc(Cl)c(Cl)c3)n(C(c3ccccc3)c3ccccc3)c3ccc(Cl)cc23)cc1)C(=O)O has a reported melting point of 207 to 208 °C

Record O=C1OC(O)c2cccc(F)c21 (stereo not drawn) . Reported melting point: 126 to 127 °C

melting point recorded for this compound, COc1ccc(C(O)CNCc2ccccc2[N+](=O)[O-])cc1OC (stereo not drawn) , is 120 to 121 °C

Given item CN(c1cccc2cc(C3=NCC(C(=O)N4CCOCC4)S3)[nH]c12)S(=O)(=O)c1cccs1 (stereo not drawn) , the value recorded as its melting point is 238 to 239 °C

Value of melting point reported for the compound Cc1nc(-c2cncc(F)c2)sc1NC(=O)C(C)CS(C)(=O)=NC#N (stereo not drawn) is 75 to 81 °C

The recorded melting point for COC(=O)COc1ccccc1 is 85 to 89 °C
